system: SN12C; assay: NCI tumour cell line growth inhibition, 48 h
Calls of active or inactive are those of the source. No stated cut-off is given here; in the data, active = GI50 up to about 1.1 µM and inactive = higher.
Readout Kind: GI50

CCOC(=O)[C@@H]1C[C@@H]1c1ccc(O)c(O)c1 = 78.2 µM (inactive)
Cc1cccc2c(N)c3cccc(C(=O)NCC[N+]4(Cc5ccc([N+](=O)[O-])cc5)CCOCC4)c3nc12 = 3.99 µM (inactive)
COc1cccc(Nc2nc3c([nH]2)c(=O)n(C)c(=O)n3C)c1 = > 10 µM (inactive)
CN(C)CCC(=O)/C=C\c1ccccc1 = 16.6 µM (inactive)
Cc1cc(Cl)cc2c1NC(=O)C2(O)CC(=O)c1ccc(F)cc1 (stereo not given) = 27.2 µM (inactive)
O=C(c1ccc([N+](=O)[O-])cc1)C(Br)C(Br)c1ccnc2ccccc12 (stereo not given) = 4.46 µM (inactive)
CC(C)=CCC[C@H](C)[C@H]1CC[C@@H](C)c2cc(O)c(C)cc21 = 15.9 µM (inactive)
O=C1Cc2c(-c3ccc(Cl)cc3)cc(-c3ccccc3)nc2-c2ccccc2N1 = 3.71 µM (inactive)
Nc1cc2c3c(c1)Oc1cc(N)cc4c1C3c1c(cc(N)cc1O4)O2 = 16.7 µM (inactive)
CCCc1nc(NC#N)nc(C(=O)Nc2ccccc2)c1CC = > 100 µM (inactive)
COc1ccc(CCc2cc(OC)cc(OC)c2)cc1 = 45.9 µM (inactive)
CC(=O)n1cc(OP(=O)(Oc2ccccc2)Oc2ccccc2)c2ccccc21 = 29.2 µM (inactive)
Cc1c(C)c2cc3c(=O)ccoc3c(C)c2oc1=O = 56.6 µM (inactive)
CC(C)C1CC(CO)(CNc2nc(N)nc(Cl)c2/C=N\O)C1 (stereo not given) = 23.2 µM (inactive)
CN1C(NCCO)=NS(=O)(=O)c2ccccc21 = > 100 µM (inactive)
CC(C)(C)OC(=O)/C=C/[C@@H](CCC(=O)/C=C/[C@H](/C=C\CCCC(=O)O)NC1(c2ccccc2)c2ccccc2-c2ccccc21)O[Si](C)(C)C(C)(C)C = 15.8 µM (inactive)
COC(=O)C(Cc1ccccc1)NP(=O)(O)OCC1OC(n2cc(Br)c(=O)[nH]c2=O)CC1O (stereo not given) = > 100 µM (inactive)
CC(=O)OCC1OC(n2cc(I)c(=O)[nH]c2=O)C(OC(C)=O)C(OC(C)=O)C1OC(C)=O (stereo not given) = > 100 µM (inactive)
C/C(=N/NC(=O)C(N)=O)C(CC(C(=O)Nc1ccccc1C)/C(C)=N\NC(=O)C(N)=O)C(=O)Nc1ccccc1C (stereo not given) = > 100 µM (inactive)
NC1(C(=O)O)CCc2ccc(N(CCCl)CCCl)cc2C1 (stereo not given) = 49.3 µM (inactive)
NC(=O)N/N=C(/Cc1nc2ccc(C(=O)c3ccccc3)cc2nc1O)C(=O)Nc1ccc(C(F)(F)F)cc1[N+](=O)[O-] = > 100 µM (inactive)
S=c1sc2c(S)nc(S)nc2n1-c1ccccc1 = > 100 µM (inactive)
O=C(O)c1nc2nc(Cl)c(Cl)nc2[nH]1 = > 100 µM (inactive)
OCC1OC(n2nc(-c3ccccc3)nc2-c2cnccn2)C(O)C1O (stereo not given) = > 100 µM (inactive)
CO[C@]12CC(=O)C3(C(C[C@H]4CC5CC[C@H]6C[C@@H](OC(C)=O)CC[C@]6(OC(C)=O)C5C[C@@]43C)C1)C1C[C@H]3[C@@H]4CC[C@H]5C[C@@H](OC(C)=O)CC[C@]5(OC(C)=O)[C@H]4CC[C@]3(C)C12 (stereo not given in full) = > 100 µM (inactive)
Cc1ccc(-c2nc(-c3nccc4ccccc34)oc2-c2ccccc2)cc1 = 24.8 µM (inactive)
O=C(Cc1ccccc1)NN1C(=O)C(Cl)C1c1cc(Br)ccc1O (stereo not given) = 7.29 µM (inactive)
CC(=O)N(C(C)=O)C1=C2c3ccccc3N(S(=O)(=O)c3ccccc3)C2n2c(=O)n(-c3ccccc3)c(=O)n2C1 (stereo not given) = 69.7 µM (inactive)
COc1ccccc1C(O)[C@@H]1C[C@@H]2[C@H]3CC[C@@](C)([C@@H]2O1)C3(C)C (stereo not given in full) = 16.4 µM (inactive)
C[C@]12CC[C@H](OC(=O)Cc3ccc(N(CCCl)CCCl)cc3)CC1CC[C@@H]1C2CC[C@]2(C)NC(=O)CCC12 (stereo not given in full) = 5.38 µM (inactive)
